Values were extracted from patent US6794385B2.

- system-name: αIIbβ3 integrin (human fibrinogen receptor) (Homo sapiens, UniProt P05106+P08514)
- Construct: was purified from human platelets
- Sequence (P08514 32-887 limits assumed): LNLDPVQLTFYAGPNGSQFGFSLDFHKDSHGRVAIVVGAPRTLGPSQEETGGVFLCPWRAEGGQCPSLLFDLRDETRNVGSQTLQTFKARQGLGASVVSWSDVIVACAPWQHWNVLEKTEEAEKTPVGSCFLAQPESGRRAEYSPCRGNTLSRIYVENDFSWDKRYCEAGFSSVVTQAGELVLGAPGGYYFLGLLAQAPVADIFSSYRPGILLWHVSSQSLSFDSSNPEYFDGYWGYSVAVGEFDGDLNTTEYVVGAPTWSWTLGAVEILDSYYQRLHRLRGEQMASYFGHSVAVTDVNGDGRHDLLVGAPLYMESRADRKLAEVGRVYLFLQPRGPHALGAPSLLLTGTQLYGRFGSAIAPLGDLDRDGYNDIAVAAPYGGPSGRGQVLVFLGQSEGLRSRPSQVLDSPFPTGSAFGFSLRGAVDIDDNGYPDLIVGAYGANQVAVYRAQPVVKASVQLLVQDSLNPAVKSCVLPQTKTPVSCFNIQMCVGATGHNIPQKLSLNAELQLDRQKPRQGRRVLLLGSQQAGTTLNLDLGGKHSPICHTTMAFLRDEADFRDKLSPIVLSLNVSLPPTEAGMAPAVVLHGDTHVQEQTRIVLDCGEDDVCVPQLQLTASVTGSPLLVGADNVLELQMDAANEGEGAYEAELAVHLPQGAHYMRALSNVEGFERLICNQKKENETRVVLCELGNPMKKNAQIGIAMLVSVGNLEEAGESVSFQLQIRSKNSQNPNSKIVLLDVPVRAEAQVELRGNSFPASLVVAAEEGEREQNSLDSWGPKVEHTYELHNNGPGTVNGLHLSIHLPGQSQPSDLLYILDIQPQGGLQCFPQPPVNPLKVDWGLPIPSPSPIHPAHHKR
- Sequence (P08514 891-1039 partner limits assumed): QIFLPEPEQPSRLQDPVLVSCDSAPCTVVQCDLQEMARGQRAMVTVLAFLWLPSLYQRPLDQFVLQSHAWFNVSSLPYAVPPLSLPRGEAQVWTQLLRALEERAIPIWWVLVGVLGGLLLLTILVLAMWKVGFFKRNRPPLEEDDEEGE
- Sequence (P05106 27-788): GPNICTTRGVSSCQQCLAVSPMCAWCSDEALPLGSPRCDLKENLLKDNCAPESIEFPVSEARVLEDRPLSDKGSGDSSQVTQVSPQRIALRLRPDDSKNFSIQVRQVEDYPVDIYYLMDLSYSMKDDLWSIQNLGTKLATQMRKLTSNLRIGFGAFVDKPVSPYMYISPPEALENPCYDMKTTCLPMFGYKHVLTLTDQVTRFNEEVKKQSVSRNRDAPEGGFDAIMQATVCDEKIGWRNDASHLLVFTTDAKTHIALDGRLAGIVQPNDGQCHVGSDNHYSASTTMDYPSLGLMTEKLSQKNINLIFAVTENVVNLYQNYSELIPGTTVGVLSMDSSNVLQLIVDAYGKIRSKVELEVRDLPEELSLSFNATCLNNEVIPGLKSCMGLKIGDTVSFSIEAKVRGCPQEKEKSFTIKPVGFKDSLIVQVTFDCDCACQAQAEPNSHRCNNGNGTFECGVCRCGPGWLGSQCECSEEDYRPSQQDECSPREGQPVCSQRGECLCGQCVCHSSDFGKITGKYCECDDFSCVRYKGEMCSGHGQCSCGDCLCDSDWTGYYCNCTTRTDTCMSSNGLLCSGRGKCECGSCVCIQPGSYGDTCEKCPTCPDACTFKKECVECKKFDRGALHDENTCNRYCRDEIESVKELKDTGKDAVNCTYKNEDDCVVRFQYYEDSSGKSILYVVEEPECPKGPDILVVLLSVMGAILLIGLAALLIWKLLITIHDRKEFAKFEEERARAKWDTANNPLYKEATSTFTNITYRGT
- assay-summary: αIIbβ3-fibrinogen binding assay (solid phase)
- reported-conditions: inhibition of biotinylated fibrinogen (10 nM) binding to coated αIIbβ3; read-out: αIIbβ3 (IC50 μmol)
observation-type: pIC50
FYI, pIC50 means -log10 of a concentration in mol per litre.

• O=C(O)CC1CN(c2ccccc2)c2cc(NC(=O)CCCNc3ccccn3)ccc2O1 (centres unmarked) = 4.57

Next:
Query: # lookup: pIC50 of O=C(O)CC1CN(c2ccccc2)c2cc(NC(=O)CCNc3ccccn3)ccc2O1 (centres unmarked)
Result: 4.52
